# self-cleavage per record follows
B1: HDV Ribozyme (parent)
chain: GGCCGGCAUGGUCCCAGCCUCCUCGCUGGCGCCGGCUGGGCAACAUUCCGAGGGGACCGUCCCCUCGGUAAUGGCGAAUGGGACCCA

# Variants of: B1
# test.description: self-cleavage, relative activity (ratio to wild type); higher = more cleavage; co-transcriptional
recorded.endpoint: self-cleavage

[
  {
    "variant.notation": "A16G C19A",
    "value": 0.237
  },
  {
    "variant.notation": "C57U C66U",
    "value": 0.87
  },
  {
    "variant.notation": "G5C U47G",
    "value": 0.0536
  },
  {
    "variant.notation": "A16C A87U",
    "value": 0.615
  },
  {
    "variant.notation": "C26U U72C",
    "value": 0.906
  },
  {
    "variant.notation": "U9G C61G",
    "value": 1.02
  },
  {
    "variant.notation": "A51U A83G",
    "value": 0.669
  },
  {
    "variant.notation": "U46A A51C",
    "value": 0.831
  },
  {
    "variant.notation": "G38C A70U",
    "value": 0.185
  },
  {
    "variant.notation": "G34U C36U",
    "value": 0.0482
  },
  {
    "variant.notation": "U27C C84A",
    "value": 0.923
  }
]
